Test system: Plasmodium berghei
protocol: Screen against P. berghei liver stage (PbLuc), transformed with Luciferase, at 10uM
Assay type: functional, HepG2
appliedConditions: tested at 10 uM
The campaign covered roughly 69,000 compounds. About 8,600 (12%) showed an effect of 50% or more. Shown is part of a subset that was picked to be rich in strong results.
API: label(entry) gives Met if the entry's INHIBITION is strictly smaller than 40%; on equality or larger values it gives Not met.

molecule	discreteLabel
CC(C)(O)c1cn(C2CCN(c3ncccc3Cl)CC2)nn1	Met
O=C1CC2(CCN(CC3CCOC3)CC2)c2ccccc2N1CC1CC1 (stereo unspecified)	Met
Cc1csc2c(N3CCC(Cn4cc(C(C)(C)O)nn4)CC3)ncnc12	Not met
Cc1csc2ncnc(N3CCC(Cn4cc(C(C)(C)N)nn4)CC3)c12	Not met
CCCc1nc(CNc2nc(C)nc3oc(C)nc23)cs1	Not met
Cc1csc2ncnc(N3CCC(Cn4cc(C(C)(C)O)nn4)CC3)c12	Not met
CC(C)(O)c1cn(C[C@H]2C[C@@H]3CCN2C[C@@H]3C(=O)N2CCOCC2)nn1	Met
c1cnc(N2CC3(CCN(CC4CCOC4)CC3)c3ccccc32)nc1 (stereo unspecified)	Met
O=C1N(CC2CC2)CCC12CCN(c1ncccn1)CC2	Met
CC(C)(N)c1cn(C2CCN(c3ncccc3Cl)CC2)nn1	Met

* * *

Tested on: Plasmodium berghei
protocol: Screen against P. berghei liver stage (PbLuc), transformed with Luciferase, at 10uM
Assay type: functional, HepG2
appliedConditions: tested at 10 uM
Hit rate of the full screen: of about 69,000 compounds, about 8,600 (12%) showed an effect of 50% or more. This excerpt belongs to a sample that is enriched for strong results.

compound	INHIBITION
CCS(=O)(=O)CCNC(=O)c1cc2n(n1)CCCO2	-16.3%
CCN1CCOCC12CCN(c1nccs1)CC2	54.8%
CN(C(=O)CCc1nc(C2CC2)no1)c1cc(C#N)c2ccccc2n1	23.1%
COCCN1CCN(Cc2ccc(C(C)=O)cc2)[C@H]2CS(=O)(=O)C[C@H]21	32.1%
O=C(CC1COCCN1S(=O)(=O)c1ccccc1)NCc1ccccn1 (stereo unspecified)	68.5%
COCCN1CCN(Cc2ccc(Cl)cc2)[C@H]2CS(=O)(=O)C[C@H]21	52.1%
COCCN1CCOCC12CCN(c1cnccn1)CC2	42.1%
c1csc(CN2CCC3(CCCN3CC3CC3)CC2)n1	33%
Cc1noc(C)c1CN1CCOCC12CCN(c1cnccn1)CC2	34.9%
CC(=O)N1CCC(CCc2ccnc(NC(=O)c3ccccn3)c2)CC1	21.95%
Cc1nn(C)c(C)c1C1CCCN1C(=O)c1ccnc(N(C)C)c1 (stereo unspecified)	-4.16%
COCCN1CCOCC12CCN(c1ccc(C#N)cc1)CC2	49.7%
COCCN1CCN(Cc2ccncc2)[C@H]2CS(=O)(=O)C[C@H]21	63.5%
Cc1noc(C)c1CN1CCOCC12CCN(c1nccs1)CC2	67.5%
CN(C)S(=O)(=O)N1CCOCC1CC(=O)NCCOc1ccccc1 (stereo unspecified)	23.5%
CC(=O)Nc1cc(CCC2CCN(C(=O)c3ccccn3)CC2)ccn1	10.35%
Cc1cccc2c1ccn2CCC(=O)O	17.6%
Cc1ccc(C2CCCN2S(=O)(=O)N(C)CCc2ccccn2)o1 (stereo unspecified)	-17.35%
O=c1cc(CNCc2ccc3c(c2)OCO3)nc2ccc(Br)cn12	28%
CC(O)CN1CCN(C(=O)c2cccc3[nH]ncc23)CC1 (stereo unspecified)	-31.8%
NC1CCC(CN2CCCn3nc(CNC(=O)C4CCC4)cc3C2)CC1 (stereo unspecified)	18.4%
COc1ccc(C(=O)N2CCCC(n3cc(C)cn3)C2)c(F)c1 (stereo unspecified)	2.97%
CCO[C@H]1CC[C@H]2[C@H]1OCCN2CCOCc1ccccc1	4.98%
CCn1nc(C)c(C(=O)N2CCC(Nc3ccc(C)nn3)CC2)c1C	17.5%
Cc1ccc(NC2CCN(C(=O)c3cccc4[nH]ncc34)CC2)nn1	55.4%
COCC(=O)N1CC[C@H]2C[C@H](c3nnc(C4CC4)o3)O[C@@H]2C1	-6.3%
COCc1cnc2n1CCN(Cc1cccnc1)C2C (stereo unspecified)	-0.182%
CCC(O)CN1CCN(C(=O)c2cccc3[nH]ncc23)CC1 (stereo unspecified)	-29.8%
Cc1ccc(NC2CCN(C(=O)c3cccc4c3ccn4C)CC2)nn1	31.2%
COCCN1CCN(Cc2ccc(F)c(C)c2)[C@H]2CS(=O)(=O)C[C@H]21	28.5%
CCOc1cc(C)nc(N2CCN(C(=O)c3cc[nH]n3)CC2)n1	40%
CC(=O)N(CCc1ccccc1)CC(=O)Nc1ccccc1C#N	45.8%
CN1CCOCC12CCN(Cc1nccs1)CC2	0.804%
O=C(c1cccc(F)c1F)N1CCn2c(nnc2C(F)(F)F)C1	34.6%
CCC(C)NS(=O)(=O)c1ccc(C(=O)NC2(C#N)CCC2)cc1 (stereo unspecified)	3.13%
Cc1ccc(CN2C[C@@H]3[C@@H](C(=O)N4CCCC4)CCS(=O)(=O)[C@@H]3C2)cc1	-10.9%
CC(NC(=O)N1CCC(n2cncn2)CC1)c1ccc(F)cc1 (stereo unspecified)	17.4%
CCN1CCOCC12CCN(c1ccc(C#N)cc1)CC2	2.4%
O=C(NCCc1ccccn1)C1(n2cnnn2)CCCCC1	46.4%
O=C(CN1CCOCC1CC(=O)c1ccco1)NCc1ccccn1 (stereo unspecified)	54.3%
Nc1ncccc1CN1CCOCC1CC(=O)NCc1ccccn1 (stereo unspecified)	47.6%
CCn1nc(C)c2nnn(CC(=O)Nc3ccccc3F)c(=O)c21	40.8%
CCN1CCOCC12CCN(c1cnccn1)CC2	32.1%
COCCN1CCN(Cc2nc3c(s2)CCCC3)[C@H]2CS(=O)(=O)C[C@H]21	-27.6%
O=C(c1ccc(F)cc1Cl)N1CCn2c(nnc2C(F)(F)F)C1	68.8%
COCCN1CCN(Cc2nccs2)[C@H]2CS(=O)(=O)C[C@H]21	55.7%
